Overview of reported relative viability across a group of compounds:
Test system: RERF-LC-KJ
Assay: relative viability (nuclei count vs DMSO), 5 days (fraction); higher = more cells survive
Settings: first compound 20 µM
I only need the number, thanks.

>>> recorded_number("Cc1csc(=NC2CCCCC2)n1/N=C/c1ccc(O)c(O)c1O [MIM1] + NC(=O)Nc1cc(-c2cccc(F)c2)sc1C(=O)N[C@H]1CCCNC1 [AZD7762] (partner 0.2 µM)")
0.17
>>> recorded_number("Cc1csc(=NC2CCCCC2)n1/N=C/c1ccc(O)c(O)c1O [MIM1] + COc1cccc2cc(-c3nc([C@H]4CC[C@H](C(=O)O)CC4)n4ncnc(N)c34)[nH]c12 [OSI-027] (partner 0.5 µM)")
0.195
>>> recorded_number("Cc1csc(=NC2CCCCC2)n1/N=C/c1ccc(O)c(O)c1O [MIM1] + Cc1nc(NC(=O)N2CCC[C@H]2C(N)=O)sc1-c1ccnc(C(C)(C)C(F)(F)F)c1 [Alpelisib] (partner 2 µM)")
0.213
>>> recorded_number("Cc1csc(=NC2CCCCC2)n1/N=C/c1ccc(O)c(O)c1O [MIM1] + O=C(c1cc(Cc2n[nH]c(=O)c3ccccc23)ccc1F)N1CCN(C(=O)C2CC2)CC1 [Olaparib] (partner 8 µM)")
0.215
>>> recorded_number("Cc1csc(=NC2CCCCC2)n1/N=C/c1ccc(O)c(O)c1O [MIM1] + C[C@]1(O)C[C@@H](c2nc(-c3ccc4ccc(-c5ccccc5)nc4c3)c3c(N)nccn32)C1 [Linsitinib] (partner 1 µM)")
0.287

Incoming: Let me know recorded relative viability for Cc1csc(=NC2CCCCC2)n1/N=C/c1ccc(O)c(O)c1O [MIM1] + Cc1nc(Nc2ncc(C(=O)Nc3c(C)cccc3Cl)s2)cc(N2CCN(CCO)CC2)n1 [Dasatinib] (partner 0.075 µM) , thanks.
Outgoing: 0.228

Incoming: Let me know recorded relative viability for Cc1csc(=NC2CCCCC2)n1/N=C/c1ccc(O)c(O)c1O [MIM1] + CC(C)C[C@H](NC(=O)[C@H](Cc1ccccc1)NC(=O)c1cnccn1)B(O)O [Bortezomib] (partner 0.002 µM) , thanks.
Outgoing: 0.264
